Data provenance: the RNAGym collection of RNA variant scans (doi:10.1073/pnas.2313332121)

B1: TPR 5TU (parent)
chain: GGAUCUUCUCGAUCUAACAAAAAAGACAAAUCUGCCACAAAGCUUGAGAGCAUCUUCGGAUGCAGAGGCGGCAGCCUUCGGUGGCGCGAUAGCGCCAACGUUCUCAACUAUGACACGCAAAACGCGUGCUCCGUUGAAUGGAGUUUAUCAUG

Variants of: B1
Experiment: polymerase ribozyme fitness, log enrichment relative to wild type (log ratio); higher = more active; in vitro selection for triplet polymerase activity
This sample holds only a part of the variants without activity.
Endpoint Name: polymerase ribozyme fitness (log ratio)

Mutation List	Measured Number
A41C U56A A91G A97G A142U	-3.86
A20G G59A	-0.551
C76A G84A	-0.957
U55A C57A C95U	-0.372
A52U G59A A98G C131U	-1.78
C108U A115G	-3.94
A26U G141U	-1.94
G92A C103U	-2.02
A16U A120G	-2.64
U44A C75G C96U	-4.08
G58C U135G	-3.82
